tested on: Malme-3M; assay: NCI tumour cell line growth inhibition, 48 h
Calls of active or inactive are those of the source. No stated cut-off is given here; in the data, active = GI50 up to about 1.1 µM and inactive = higher.
Pick one and only one: active, inactive

Could you please tell me the result logged for COc1cccc2c1OC(c1ccc(Cl)cc1)C([N+](=O)[O-])=C2 (centres undefined) in this assay?
inactive

Could you please tell me the result logged for COc1ccc(C(C#N)NNC(=O)c2ccccc2O)cc1OC (centres undefined) in this assay?
inactive

Could you please tell me the result logged for "Cn1nnnc1SC(F)(F)c1nc2ccccc2o1" in this assay?
inactive

Could you please tell me the result logged for C=CCc1c(O)c2c(c3oc(=O)cc(C)c13)CC(C)O2 (centres undefined) in this assay?
inactive

Could you please tell me the result logged for O=C(C1OC1c1ccc(F)cc1)C12CC3CC(CC(C3)C1)C2 (centres undefined) in this assay?
inactive

Could you please tell me the result logged for "COc1ccc(/C(Nc2ccccc2)=C(\CCl)c2ccccc2)cc1OC" in this assay?
inactive

Could you please tell me the result logged for COC1=CC(=O)[C@H]2[C@H](C)C(c3ccccc3)[C@@]2(C)C1=O (some centres undefined) in this assay?
inactive

Could you please tell me the result logged for CC(=O)CC(=O)OC1CC(C)CCC1C(C)C (centres undefined) in this assay?
inactive

Could you please tell me the result logged for "Nc1c(C(=O)O)nnc2cc(Cl)c(Cl)cc12" in this assay?
inactive

Could you please tell me the result logged for "CN1CN(c2ccccc2)C2(CCN(CCCN(C)c3ccc(F)cc3)CC2)C1=O" in this assay?
inactive

Could you please tell me the result logged for "COc1cccc(Nc2nc(C)c([N+](=O)[O-])c(Nc3cccc(OC)c3)n2)c1" in this assay?
inactive

Could you please tell me the result logged for N#Cc1nc(CCC(c2nc(C#N)c(N)o2)N2C(=O)c3ccccc3C2=O)oc1N (centres undefined) in this assay?
inactive

Could you please tell me the result logged for "CC(=O)/C=C1\CC(=O)Nc2ccccc2N1" in this assay?
inactive

Could you please tell me the result logged for "O=C(/C=C/c1ccc(OCc2ccccc2)cc1)NCc1ccc(C(=O)NCCc2c[nH]c3ccccc23)cc1" in this assay?
inactive

Could you please tell me the result logged for COC(=O)c1ccc(COC(=O)N2C=CCC2C(=O)O)cc1 (centres undefined) in this assay?
inactive

Could you please tell me the result logged for COC(=O)C1=NC(=S)NC(c2ccccc2)C1c1nc2ccccc2s1 (centres undefined) in this assay?
inactive

Could you please tell me the result logged for "CO[C@@H]1C[C@H](OC(N)=O)[C@@H]2C=C[C@@H]3/C=C(C)/C=C/[C@@H](C)[C@H]([C@H](C)[C@H](O)[C@@H](C)NC(C)=O)OC(=O)/C=C/C=C(C)\C=C\[C@]3(C)[C@@H]2C1" in this assay?
active

Could you please tell me the result logged for "CON(C)c1nc(N(C)OC)nc(N(C)OC)n1" in this assay?
inactive

Could you please tell me the result logged for COc1ccc2c3c1OC1C(=O)C=CC4(CC2)N(C)CCC314 (centres undefined) in this assay?
inactive

Could you please tell me the result logged for "O=C(Oc1ccc2c(c1)CN(Cc1ccccc1)CO2)c1ccccc1" in this assay?
inactive

Could you please tell me the result logged for COC(=O)c1cccc(C)c1C1CN=NC12Cc1c(ccc(C)c1C)C2=O (centres undefined) in this assay?
inactive

Could you please tell me the result logged for O=C1C(Cl)C(c2ccccc2)N1n1cnc2ccccc2c1=O (centres undefined) in this assay?
inactive

Could you please tell me the result logged for "CC(=O)c1cc2c(s1)C(=O)c1ccsc1C2=O" in this assay?
active

Could you please tell me the result logged for CCOC(=O)C(C)NC(=O)NC12CC3CC(CC(F)(C3)C1)C2 (centres undefined) in this assay?
inactive

Could you please tell me the result logged for "Cc1ccc(C2=C(Cl)C(=O)C(c3ccc(C)cc3)=C(Cl)C2=O)cc1" in this assay?
inactive

Could you please tell me the result logged for "Cn1ccnc1CCc1ccc(Cl)cc1Cl" in this assay?
inactive

Could you please tell me the result logged for "O=C(O)COc1cccc2ccccc(=O)c12" in this assay?
inactive

Could you please tell me the result logged for "CN1Cc2cc3cc4c(cc3nc2N(C)C1)OCCO4" in this assay?
inactive

Could you please tell me the result logged for Cn1cc2c3ccccc3nc-2c2ccccc21 [ISOCRYPTOLEPINE] in this assay?
inactive

Could you please tell me the result logged for "COc1ccc2nc(-c3ccc(O)cc3)ccc2c1" in this assay?
inactive

Could you please tell me the result logged for O=C1CSC(c2ccccc2[N+](=O)[O-])N1c1ccc(-c2ccc(-n3c(-c4ccccc4)nc4ccccc4c3=O)cc2)cc1 (centres undefined) in this assay?
inactive

Could you please tell me the result logged for "O=C1C(N2CCN(c3ccccn3)CC2)=C(Cl)C(=O)c2ncccc21" in this assay?
inactive

Could you please tell me the result logged for "O=C(N/N=C/c1cc(Br)cc(Br)c1O)c1ccccc1O" in this assay?
inactive

Could you please tell me the result logged for "O=[N+]([O-])c1cccc(-c2ccc([C@H]3CC(c4ccc(Cl)cc4)=NN3)o2)c1" in this assay?
inactive

Could you please tell me the result logged for c1ccc(C2=NC3OC2c2ccccc23)cc1 (centres undefined) in this assay?
inactive

Could you please tell me the result logged for "O=C1C(Br)=C(c2ccccc2)O/C1=C/C(=O)c1ccc(Br)cc1" in this assay?
inactive

Could you please tell me the result logged for CCN(CC)CC1CCCCN1CC(=O)N1c2ccccc2NC(=O)CC1C (centres undefined) in this assay?
inactive

Could you please tell me the result logged for "CCC/N=C/c1cc(Cc2ccc(O)c(/C=N/CCC)c2)ccc1O" in this assay?
inactive

Could you please tell me the result logged for C[n+]1cc(C(O)c2ccc3c(c2)OCO3)c2ccccc2c1 (centres undefined) in this assay?
inactive

Could you please tell me the result logged for "CCOc1ccccc1NC(=O)C(=O)Cc1nc2ccccc2s1" in this assay?
inactive

Could you please tell me the result logged for S=C(/N=C1/NCC(CN2CCN(c3ccccc3)CC2)O1)Nc1ccccc1 (centres undefined) in this assay?
inactive

Could you please tell me the result logged for O=c1n(CC2CS2)c2ccccc2n1CC1CS1 (centres undefined) in this assay?
inactive

Could you please tell me the result logged for "CCOC(=O)/C(C#N)=C1\c2c([nH]c(=S)[nH]c2=O)Oc2ccc3ccccc3c21" in this assay?
inactive

Could you please tell me the result logged for "COc1ccc(-n2sc3ncccc3c2=O)cc1" in this assay?
inactive
